# measurement_target: Nuclear receptor subfamily 0 group B member 1 (Homo sapiens)
# experimental_details: DAX1 (NR0B1) inhibitors relieving SF-1 repression, confirmation, cell-based, luminescence, HEK293T, full-length DAX-1, SF-1 activated StAR promoter (AID 652134);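 note: 0% = DAX-1 cells with DMSO and 100% = no DAX-1 control cells with DMSO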
# experimental_context: HEK293T StAR-promoter luciferase reporter, SF-1/DAX-1 repression; at 6.8 µM; stronger effect = higher value
Hit rate of the full screen: of about 2,400 compounds, about 2,100 (88%) were called active. So high a share suggests a set chosen from earlier hits. Only a sample is shown.
Collected inhibition values appear next to each entry.
Just the number please, in %, no unit attached.

Use the examples below as a reference point.
molecule	units_text	recorded_number
CCc1ccc(NC2Nc3cc(C)nn3S2)cc1 (configuration not stated)	%	10.6
O=C(NCCOc1ccccc1)c1ccccc1F	%	13.3
CCOc1cccc(/C=C/c2ccc3ccccc3n2)c1OC(C)=O	%	10.4
C/C(=N\NC(=O)c1ccccc1F)c1ccccn1	%	-7.54
Clc1ccc(Nc2nc(-c3cccs3)cs2)nc1	%	13.8

# input for lookup
Given item C=CCn1c(SCC(=O)Nc2ccc(NC(C)=O)cc2)nc2sc(C)c(C)c2c1=O , the value recorded as its inhibition is -0.94

###

# measurement_target: Nuclear receptor subfamily 0 group B member 1 (Homo sapiens) (UniProt P51843)
# Sequence (P51843 whole entry, looked up): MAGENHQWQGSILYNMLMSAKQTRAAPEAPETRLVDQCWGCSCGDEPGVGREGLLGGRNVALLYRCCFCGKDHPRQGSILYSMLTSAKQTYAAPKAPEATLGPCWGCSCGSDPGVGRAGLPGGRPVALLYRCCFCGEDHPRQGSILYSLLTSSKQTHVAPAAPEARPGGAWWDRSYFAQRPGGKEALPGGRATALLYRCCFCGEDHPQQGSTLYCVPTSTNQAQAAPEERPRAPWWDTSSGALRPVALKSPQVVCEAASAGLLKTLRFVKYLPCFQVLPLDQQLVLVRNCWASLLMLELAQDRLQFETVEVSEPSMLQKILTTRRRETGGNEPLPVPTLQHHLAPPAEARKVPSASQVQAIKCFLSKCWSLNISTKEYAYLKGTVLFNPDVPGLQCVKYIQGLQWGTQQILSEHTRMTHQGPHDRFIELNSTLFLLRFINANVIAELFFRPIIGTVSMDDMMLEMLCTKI
# experimental_details: DAX1 (NR0B1) inhibitors relieving SF-1 repression, confirmation, cell-based, luminescence, HEK293T, full-length DAX-1, SF-1 activated StAR promoter (AID 652134);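 note: 0% = DAX-1 cells with DMSO and 100% = no DAX-1 control cells with DMSO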
# experimental_context: HEK293T StAR-promoter luciferase reporter, SF-1/DAX-1 repression; at 6.8 µM
In all, about 2,400 compounds went through this assay and about 2,100 (88%) were called active.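 Rule for the calls: active = inhibition above the average of every tested compound plus 3 SD (cut at about 3.8% in these data); inactive = the rest.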 So high a share suggests a set chosen from earlier hits. The list is a sample of the results.
Could you please pick one outcome from this set? yes (1) (active), no (0) (inactive)

compound	label
CC(=O)Nc1cccc(-c2csc(Nc3cccc(C)n3)n2)c1	yes (1)
CN1CCN(c2ccc(NC(=O)c3ccc4c(c3)OCCO4)cc2Cl)CC1	yes (1)
Cc1ccccc1OCC(=O)Nc1ccc2c(c1)ncn2C	yes (1)
COc1ccccc1Cc1c(-c2ccc(F)cc2)nc2ccc(C)cn12	yes (1)
CCN(c1ccccc1)S(=O)(=O)c1ccc(OCC(=O)N2CCCC2)cc1	no (0)

Query :: Give the logged outcome of this assay for the following compound: O=c1c2c(nc3cc(-c4cccc(Cl)c4)[nH]n13)CCCC2
Result :: yes (1)

Query :: Give the logged outcome of this assay for the following compound: NC(=O)CSc1nnc(NC(=O)c2ccc3ccccc3c2)s1
Result :: yes (1)

Query :: Give the logged outcome of this assay for the following compound: CCCNC(=O)C1CC(=O)N(c2ccc(OCc3ccccc3)cc2)C1 (configuration not stated)
Result :: yes (1)

###

# measurement_target: Nuclear receptor subfamily 0 group B member 1 (Homo sapiens)
# experimental_details: DAX1 (NR0B1) inhibitors relieving SF-1 repression, confirmation, cell-based, luminescence, HEK293T, full-length DAX-1, SF-1 activated StAR promoter (AID 652134);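 note: 0% = DAX-1 cells with DMSO and 100% = no DAX-1 control cells with DMSO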
# experimental_context: HEK293T StAR-promoter luciferase reporter, SF-1/DAX-1 repression; at 6.8 µM; stronger effect = higher value
About 2,100 (88%) of roughly 2,400 compounds were called active. So high a share suggests a set chosen from earlier hits. A selection follows.
test_readout: inhibition

Use the examples below as a reference point.
molecule_smiles	inhibition
CCc1ccc(NC(=O)N2CCc3ccccc3C2)cc1	5.01% (active)
NS(=O)(=O)c1ccc2nc(NC(=O)C3=COCCO3)sc2c1	9.88% (active)
CCCc1cc(C(=O)Nc2ccc(C(=O)OC)cc2)cs1	3.03% (inactive)
O=C(Nc1ccc2ccccc2c1[N+](=O)[O-])c1ccccc1	8.86% (active)
CCCc1cc(C(=O)Nc2ccc(Cl)cn2)cs1	8.76% (active)

# input for lookup
Given item O=C(Nc1ccccc1)Nc1nc2ccccc2s1 , the value recorded as its inhibition is 14.6% (active)
